- Study System: UDP-3-O-acyl-N-acetylglucosamine deacetylase (Pseudomonas aeruginosa (strain ATCC 15692 / PAO1 / 1C / PRS 101 / LMG12228)) (UniProt P47205)
- Sequence (P47205 whole entry): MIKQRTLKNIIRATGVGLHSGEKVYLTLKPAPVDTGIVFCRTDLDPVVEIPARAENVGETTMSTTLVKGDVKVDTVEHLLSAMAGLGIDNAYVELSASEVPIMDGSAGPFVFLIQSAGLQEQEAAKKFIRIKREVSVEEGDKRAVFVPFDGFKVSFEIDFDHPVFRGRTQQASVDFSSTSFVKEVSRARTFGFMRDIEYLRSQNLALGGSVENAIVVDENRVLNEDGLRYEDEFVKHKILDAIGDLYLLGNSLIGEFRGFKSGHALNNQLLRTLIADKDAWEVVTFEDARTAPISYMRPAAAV
Recorded MIC, one value per entry.
State the answer as a number, implicitly in mg/L.

Below, 6 compounds whose answers are already recorded.
{"Compound": "C[C@@H](O)[C@H](NS(=O)(=O)c1ccc(C#CC#CC2CC2)cc1)C(=O)NO", "MIC / mg/L": 100}
{"Compound": "CC(C)(N)[C@H](NC(=O)c1ccc(C#CC#CC2CC2)cc1)C(=O)NO", "MIC / mg/L": 0.156}
{"Compound": "C[C@@H](O)[C@H](NC(=O)c1ccc(C#CC#CC2CC2)cc1OC(F)F)C(=O)NO", "MIC / mg/L": 10}
{"Compound": "C[C@@H](O)[C@H](NC(=O)c1ccc(C#CC#CC2CC2)cc1Cl)C(=O)NO", "MIC / mg/L": 6.25}
{"Compound": "C[C@@H](O)[C@H](NC(=O)c1ccc(C#CC#CC2CC2)cc1O)C(=O)NO", "MIC / mg/L": 0.625}
{"Compound": "C[C@@H](O)[C@H](NC(=O)c1ccc(C#CC#CC2CC2)cc1F)C(=O)NO", "MIC / mg/L": 2.5}

Q) Provide only the value of recorded MIC for COc1cc(C#CC#CC2CC2)ccc1C(=O)N[C@H](C(=O)NO)[C@@H](C)O
A) 10

Q) Indicate the recorded MIC value for this compound: CC(C)(N)[C@H](NC(=O)c1ccc(C#CC#CC2CC2)c(F)c1)C(=O)NO
A) 0.31

Q) Complete the entry with MIC for C[C@@H](O)[C@H](NC(=O)c1ccc(C#CC#CC2CC2)cc1)C(=O)NO
A) 0.19

Q) Could you please provide reported MIC for C[C@@H](O)[C@H](NC(=O)c1ccc(C#CC#CC2CC2)cc1N)C(=O)NO ? Thanks!
A) 0.625

Q) // Input: C[C@@H](O)[C@H](NC(=O)c1ccc(C#CC#CC2CC2)cc1C#N)C(=O)NO . Output its MIC only.
A) 40

Q) Identify measured MIC corresponding to CC(CCc1ccc(-c2ccccc2)cc1)(C(=O)NO)S(C)(=O)=O (racemic)
A) 0.31

Q) State its MIC: CC(C)(N)[C@H](NC(=O)c1ccc(C#CC#CC2CC2)cc1F)C(=O)NO
A) 0.625

====

- Test system: Pseudomonas aeruginosa PA14
- Procedure Details: Inhibition of LpxC in Pseudomonas aeruginosa PA14 assessed as reduction in microbial growth incubated for 22 hrs by MTT assay
Parameter: MIC (µg/mL)
Lab book: enter the figure in µg/mL, no units written.

These recorded examples may help you get a feel for the data.
{"Chemical Structure": "CC(C)(N)[C@H](NC(=O)c1ccc(C#CC#CC2CC2)cc1O)C(=O)NO", "Unit Annotation": "µg/mL", "MIC": 0.625}
{"Chemical Structure": "CC(C)(N)[C@H](NC(=O)c1ccc(C#CC#CC2CC2)c(F)c1)C(=O)NO", "Unit Annotation": "µg/mL", "MIC": 0.31}
{"Chemical Structure": "C[C@@H](O)[C@H](NC(=O)c1ccc(C#CC#CC2CC2)cc1[N+](=O)[O-])C(=O)NO", "Unit Annotation": "µg/mL", "MIC": 5}

Q) GET MIC | system: Pseudomonas aeruginosa PA14 | item: C[C@@H](O)[C@H](NC(=O)c1ccc(C#CC#CC2CC2)cc1F)C(=O)NO
A) 1.25
